growth values by entry
- System: HL-60(TB) leukemia
- procedure.text: NCI-60 one-dose screen, 48 h (100 = growth as untreated, 0 = no growth, -100 = all killed)
- condition.parameters: 10 µM unless noted
Compounds without any hit were thinned out: in the full panel of roughly 83,000, 20% have a hit.
Hi! Could you send only the number? It should be in %, unit omitted.

compound	assay.value
Oc1[nH]c2ccccc2c1/C=c1/cc2c(c(-c3ccc(C(F)(F)F)cc3)n1)=Nc1ccccc1-2	19.2
C=C1C(=O)O[C@H]2[C@H]1CC/C(COC(=O)NCc1[nH]nc3ccccc13)=C\CC[C@@]1(C)O[C@@H]21	-51
CCN1/C(=C/C=C/c2n(-c3ccccc3)c3ccc(-c4nc5ccccc5s4)cc3[n+]2CC)N(c2ccccc2)c2ccc(-c3nc4ccccc4s3)cc21	6.43
Cc1ccc(C2CC3c4ccccc4C2C2CCCCN32)cc1 (stereo not given)	52.8
O=C1CSC(c2ccccc2)N1c1ccccc1 (stereo not given)	99.7

# lookup: HL-60(TB) leukemia growth, key = FC(F)(F)c1cccc(-c2nnn(Cc3cc(-c4cccc(Cl)c4)no3)n2)c1
108

# lookup: HL-60(TB) leukemia growth, key = Clc1cc(Cl)c2nc(-c3ccc(-c4ccc(/C=N/NC5=NCCN5)cc4)s3)cn2c1
98.4

# lookup: HL-60(TB) leukemia growth, key = O=C1/C(=C/c2ccc(Cl)cc2Cl)CN(S(=O)(=O)c2ccccc2)C/C1=C\c1ccc(Cl)cc1Cl
11

# lookup: HL-60(TB) leukemia growth, key = NC(=O)N/N=C\c1ccc([N+](=O)[O-])o1
120

# lookup: HL-60(TB) leukemia growth, key = O=C1CSC(c2ccccc2Cl)N1c1nnc(-c2ccncc2)o1 (stereo not given)
95.2
